# Test system: UO-31 renal
# Protocol text: NCI tumour cell line growth inhibition, 48 h
Endpoint name: TGI (µM)
One number for each entry, in µM.

# Molecule, TGI (µM)
rows = [
    ("BrC1=CCC23CC=C(Br)[C@H]4CC2(COC3)C[C@@H]1O4 (stereo not given in full)", 82.4),
]

Respectfully, I request TGI for each entry included below.
1. C[C@]12CC[C@@H]3c4ccc(OC(=O)N(CCCl)CCCl)cc4CC[C@H]3[C@@H]1CC[C@@H]2O
2. COc1ccc(/C=C2\CCC(CNc3ccc(S(N)(=O)=O)cc3)C2=O)cc1 (stereo not given)
3. CCN(CC)CCNc1ccc2nnn3c4ccc(C)cc4c(=O)c1c23
4. O=[N+]([O-])c1c(F)c(F)c2c(c1F)Nc1ccccc1S2
5. O=C(O)Cc1c(-c2ccc([N+](=O)[O-])cc2)c(=O)oc2cc(O)ccc12

Given back:
1: 14; 2: 12.2; 3: 22.2; 4: 34; 5: 83.6

* * *

I'd appreciate it if you could supply TGI values for the items below.
# Tested on: SK-MEL-2 melanoma
# Protocol text: NCI tumour cell line growth inhibition, 48 h

Some compounds with known TGI results, for comparison:
# Compound, Endpoint name, Experimental value
records = [
    ("CN1Cc2cc3cc4c(cc3nc2N(C)C1)OCCO4", "TGI", "> 100 µM"),
    ("N=C(N)C1CN(CCCCCCCCCCN2CC(C(=N)N)C(=O)NC2=O)C(=O)NC1=O (stereo not drawn)", "TGI", "> 10 µM"),
]

Pending compound:
Asked: Tell me its TGI given N#C[C@@H](c1nc2ccccc2s1)c1ncccc1[N+](=O)[O-] as the entry.
Given back: > 31.6 µM

* * *

# System: SF-268 CNS
# Protocol text: NCI tumour cell line growth inhibition, 48 h
Endpoint name: TGI

Some compounds with known TGI results, for comparison:
# Compound, TGI
rows = [
    ("N#Cc1ccc(OCc2nc(N)nc(N)c2-c2ccc(Cl)c(Cl)c2)cc1", "> 100 µM"),
    ("CC(Cc1ccccc1)Nc1ncnc2c1ncn2C1OC(CO)CC1O (stereo not drawn)", "> 100 µM"),
]

Pending compound:
Asked: Tell me its TGI given CCN1CCC(O)(c2ccc(Oc3ccccc3)cc2)C(C(=O)c2ccc(Oc3ccccc3)cc2)C1 (stereo not drawn) as the entry.
Given back: 35.6 µM

* * *

# Test system: U251 CNS
# Protocol text: NCI tumour cell line growth inhibition, 48 h
I'd appreciate it if you could supply TGI values for the items below.

Some compounds with known TGI results, for comparison:
# Compound, Experimental value
measured = [
    ("O=C1NCC(CSc2nc3cc(C4CCCc5c4[nH]c4ccccc54)ccc3o2)N1 (configuration not stated)", "> 100 µM"),
    ("Cc1ccc(NCC(=O)N2CC(=O)Nc3ccccc32)c(C)c1", "> 100 µM"),
    ("C/C(=C(/C)c1ccc(O)cc1)c1ccc(O)cc1", "> 100 µM"),
    ("Cc1ccc2c(c1)C(=O)N(N(C)C)CC(=O)N2", "> 100 µM"),
    ("CCN(Cc1ccc(Cl)cc1)c1ccc(CO)c(Cl)c1", "13 µM"),
    ("O=C(CCCCCCNC(=O)c1cnc(N(c2ccccc2)c2ccccc2)nc1)NO", "15.6 µM"),
    ("O=C(O)c1n[nH][nH]c1=S", "> 100 µM"),
    ("C=CCOc1cc(NC(=S)c2ccoc2C)ccc1OC", "> 100 µM"),
    ("N.N.N.N.[Co+3].[N-]=[N+]=[N-].[N-]=[N+]=[N-].[N-]=[N+]=[N-]", "> 100 µM"),
    ("COc1cc(C2=C(c3cc(OC)c4ccccc4c3OC)C(=O)c3ccccc3C2=O)c(OC)c2ccccc12", "> 100 µM"),
]

Respectfully, I request TGI for each entry included below.
1. COc1ccc2[nH]cc(-c3ccc(-c4c[nH]c5ccc(OC)cc45)s3)c2c1
2. CC(C)Oc1c(O)c2c3c(oc(=O)n3C=CC2c2ccccc2)c1OC(C)C (configuration not stated)
3. O=C(O)CCN(CCCCN(CCC(=O)O)CCC(=O)O)CCC(=O)O
4. CC1OC(OC2C(O)COC(OC3C(C)OC(OC4C(OC(=O)[C@]56CCC(C)(C)C[C@@H]5C5=CCC7[C@@]8(C)C[C@H](O)[C@H](OC9OC(CO)C(O)C(OC%10OC(CO)C(O)C(O)C%10O)C9O)[C@@](C)(CO)[C@@H]8CC[C@@]7(C)[C@]5(C)CC6)OCC(O)C4O)C(O)C3OC3OCC(O)(CO)C3O)C2O)C(O)C(O)C1O (some centres not stated)
5. Cc1ccc2nc3c(=O)[nH]c(=O)nc-3n(C)c2c1C
6. CCc1ccccc1NC(=O)C1=C(C)NC(C)=C(C(=O)Nc2ccccc2CC)C1c1ccccc1Cl
7. COc1ccc(C(=S)N2CCN(c3cccc(C)c3)CC2)cc1OC

Given back:
1: 12.6 µM; 2: 45.2 µM; 3: > 100 µM; 4: 20.6 µM; 5: > 100 µM; 6: > 100 µM; 7: > 100 µM

Respectfully, I request TGI for each entry included below.
1. COc1ccc([C@H]2CC(=O)C[C@H](c3ccc(OC)cc3)C23C(=O)c2ccccc2C3=O)cc1
2. CCCCON(OC(=O)c1ccc2ccccc2c1)C(=O)c1ccccc1
3. CCOC(=O)c1nnsc1NC(=O)Nc1ccc(Cc2ccc(NC(=O)Nc3snnc3C(=O)OCC)cc2)cc1
4. Fc1ccc(C(OCCN2CCN(CCCCl)CC2)c2ccc(F)cc2)cc1
5. CCOC(=O)NC(Nc1ncccn1)(C(=O)OCC)C(F)(F)F (configuration not stated)
6. CCOC(=O)Nc1ccc2c(c1)/C(=N\NC(N)=S)c1ccccc1-2

Given back:
1. > 100 µM
2. > 100 µM
3. > 100 µM
4. > 100 µM
5. > 100 µM
6. 40.9 µM

* * *

I'd appreciate it if you could supply TGI values for the items below.
# Tested on: NCI-H460 lung
# Protocol text: NCI tumour cell line growth inhibition, 48 h

# Molecule, TGI
measured = [
    ("CC1(C)O[C@H]2[C@H](O)C[C@](O)(CO)C[C@H]2O1", "> 100 µM"),
    ("CC[C@@H]1c2c(C#N)ncn2-c2cnc(Nc3ccc(C(=O)NC4CCN(C5CCN(CC6CC6)CC5)CC4)cc3OC)nc2N1C1CCCC1", "1.28 µM"),
    ("O=C(c1ccccc1)c1ccccc1-c1ccccc1", "18.2 µM"),
    ("NCCCOc1ccc([N+](=O)[O-])cc1Cl", "> 100 µM"),
    ("O=C(O)CN(CC(=O)O)Cc1cc(C#Cc2ccc(C#Cc3ccccc3)cc2)cc(CN(CC(=O)O)CC(=O)O)n1", "66.2 µM"),
    ("COc1ccc2[nH]cc(-c3ccc(-c4c[nH]c5ccc(OC)cc45)s3)c2c1", "9.32 µM"),
]

Respectfully, I request TGI for each entry included below.
1. O=C1C(N2CCN(c3ccccn3)CC2)=C(Cl)C(=O)c2ncccc21
2. CC(=O)N1C(OC(C)C)CC(C)N1c1ccccc1 (stereo not drawn)

Given back:
1: > 10 µM; 2: > 10 µM

* * *

# System: RPMI-8226 leukemia
# Protocol text: NCI tumour cell line growth inhibition, 48 h
Endpoint name: TGI

Respectfully, I request TGI for each entry included below.
1. CCOC(=O)NC(Nc1ncccn1)(C(=O)OCC)C(F)(F)F (stereo not drawn)
2. COc1ccc(OC)c(-c2nc3n(c2/C=C2/C(=O)Nc4ccccc42)CCS3)c1
3. N#CC(C#N)=C1c2ccccc2C(=NN)c2ccccc21

Given back:
["> 100 µM", "> 100 µM", "> 100 µM"]

* * *

# Tested on: SK-MEL-5 melanoma
# Protocol text: NCI tumour cell line growth inhibition, 48 h
Endpoint name: TGI

# Compound, TGI
data = [
    ("OCCOCCN1CCN(CCCN2c3ccccc3Sc3ccc(C(F)(F)F)cc32)CC1", "13.8 µM"),
]

Respectfully, I request TGI for each entry included below.
1. CC1OC(OC2C(O)COC(OC3C(C)OC(OC4C(OC(=O)[C@]56CCC(C)(C)C[C@@H]5C5=CCC7[C@@]8(C)C[C@H](O)[C@H](OC9OC(CO)C(O)C(OC%10OC(CO)C(O)C(O)C%10O)C9O)[C@@](C)(CO)[C@@H]8CC[C@@]7(C)[C@]5(C)CC6)OCC(O)C4O)C(O)C3OC3OCC(O)(CO)C3O)C2O)C(O)C(O)C1O (some centres not stated)
2. C/C(=C(/C)c1ccc(O)cc1)c1ccc(O)cc1

Given back:
1: 15.8 µM; 2: 50 µM

Respectfully, I request TGI for each entry included below.
1. C[C@@]1(C(=O)O)CCC[C@]2(C)C1CC[C@@]13CC(=O)[C@@](CO)(CC[C@]12O)C3 (some centres not stated)
2. CC1=C(c2ccccc2)C(c2ccccc2)=C(c2ccccc2)C2(c3ccccc3)C(=O)C(C)CN12 (configuration not stated)
3. Fc1ccc(C(OCCN2CCN(CCCCl)CC2)c2ccc(F)cc2)cc1
4. O=c1[nH]nc(-c2ccccc2)n1Nc1ccccc1
5. CC1(C)C2C=C(CCN3CCOCC3)CC1C2 (configuration not stated)

Given back:
> 100 µM
> 100 µM
32.4 µM
> 100 µM
> 100 µM
